Reference for the values: paper PMC2741464

- Tested on: Ku70/80ΔC (human, UniProt P12956;P13010 1-609;1-548)
- Sequence (P12956 whole entry, stated change not applied, chain 1 of 2): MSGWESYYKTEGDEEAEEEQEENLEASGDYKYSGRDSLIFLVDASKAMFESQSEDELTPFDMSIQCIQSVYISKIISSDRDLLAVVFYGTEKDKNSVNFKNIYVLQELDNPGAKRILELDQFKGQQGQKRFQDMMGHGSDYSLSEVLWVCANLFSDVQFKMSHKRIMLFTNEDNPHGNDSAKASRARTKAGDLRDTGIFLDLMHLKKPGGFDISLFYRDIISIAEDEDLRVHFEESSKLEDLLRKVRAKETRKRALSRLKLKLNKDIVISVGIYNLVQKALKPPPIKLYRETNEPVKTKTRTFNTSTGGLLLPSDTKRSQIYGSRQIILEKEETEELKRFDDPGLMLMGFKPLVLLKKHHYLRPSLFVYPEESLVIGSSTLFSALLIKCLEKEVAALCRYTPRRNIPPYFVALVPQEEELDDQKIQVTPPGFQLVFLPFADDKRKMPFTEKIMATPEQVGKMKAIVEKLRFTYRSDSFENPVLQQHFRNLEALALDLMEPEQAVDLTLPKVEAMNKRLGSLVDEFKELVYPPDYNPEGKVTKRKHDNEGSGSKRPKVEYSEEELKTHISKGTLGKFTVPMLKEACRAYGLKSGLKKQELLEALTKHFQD
- Sequence (P13010 1-548, stated change not applied, chain 2 of 2): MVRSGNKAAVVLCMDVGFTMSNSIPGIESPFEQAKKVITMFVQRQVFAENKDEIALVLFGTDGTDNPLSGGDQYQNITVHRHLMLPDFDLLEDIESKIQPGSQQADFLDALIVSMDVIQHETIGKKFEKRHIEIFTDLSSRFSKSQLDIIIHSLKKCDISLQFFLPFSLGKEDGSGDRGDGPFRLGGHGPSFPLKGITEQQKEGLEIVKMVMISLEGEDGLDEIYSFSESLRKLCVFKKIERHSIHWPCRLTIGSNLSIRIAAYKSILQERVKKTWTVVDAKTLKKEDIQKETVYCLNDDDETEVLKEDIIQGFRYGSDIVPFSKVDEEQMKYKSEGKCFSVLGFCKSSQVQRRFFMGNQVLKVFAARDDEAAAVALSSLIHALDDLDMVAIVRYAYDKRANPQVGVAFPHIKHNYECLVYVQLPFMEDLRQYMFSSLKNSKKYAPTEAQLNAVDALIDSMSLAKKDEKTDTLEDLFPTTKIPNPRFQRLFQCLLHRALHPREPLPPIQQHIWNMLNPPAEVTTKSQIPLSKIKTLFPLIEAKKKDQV
- Assay notes: fluorescence polarization; reduced (control), 1 mM DTT, 10 mM Mg2+, probably nM; 50 mM Tris-HCl pH 7.8, 10 mM MgCl2, 50 mM NaCl (FP: plus 1 mM DTT, 0.5 ml; EMSA: 20 μl, 500 fmol DNA); oxidation 2 mM diamide 15 min on ice, re-reduction 5 mM DTT 15 min on ice; binding temperature not stated
- Settings: protein: recombinant; tags: His6 on Ku70; N-terminal His6 (pRSET B) also on Ku80ΔC per Methods; copies: 1;1; blunt
Measurement type: pKd
Scale: negative log10 of molar concentration, which is what pKd denotes.

Incoming: Return pKd (reported value) for this binder: 30-bp duplex 30A/30C, fluorescein (polarization) (dsDNA) DNA 1: CCCCTATCCTTTCCGCGTCCTTACTTCCCC DNA 2: GGGGAAGTAAGGACGCGGAAAGGATAGGGG
Outgoing: 7.59
